biological target: human TLR9 (Homo sapiens); construct: host or cells: HEK-Blue cells (HEK293-derived reporter line); assay: TLR9 inhibition reporter assay (HEK-Blue cells, secreted embryonic alkaline phosphatase reporter); assay type: cell-based; settings: HEK-Blue cells overexpressing human TLR9, stimulated with ODN2006 5 nM, 22 hour incubation, reporter readout
Sequence (Q9NR96 26-1032): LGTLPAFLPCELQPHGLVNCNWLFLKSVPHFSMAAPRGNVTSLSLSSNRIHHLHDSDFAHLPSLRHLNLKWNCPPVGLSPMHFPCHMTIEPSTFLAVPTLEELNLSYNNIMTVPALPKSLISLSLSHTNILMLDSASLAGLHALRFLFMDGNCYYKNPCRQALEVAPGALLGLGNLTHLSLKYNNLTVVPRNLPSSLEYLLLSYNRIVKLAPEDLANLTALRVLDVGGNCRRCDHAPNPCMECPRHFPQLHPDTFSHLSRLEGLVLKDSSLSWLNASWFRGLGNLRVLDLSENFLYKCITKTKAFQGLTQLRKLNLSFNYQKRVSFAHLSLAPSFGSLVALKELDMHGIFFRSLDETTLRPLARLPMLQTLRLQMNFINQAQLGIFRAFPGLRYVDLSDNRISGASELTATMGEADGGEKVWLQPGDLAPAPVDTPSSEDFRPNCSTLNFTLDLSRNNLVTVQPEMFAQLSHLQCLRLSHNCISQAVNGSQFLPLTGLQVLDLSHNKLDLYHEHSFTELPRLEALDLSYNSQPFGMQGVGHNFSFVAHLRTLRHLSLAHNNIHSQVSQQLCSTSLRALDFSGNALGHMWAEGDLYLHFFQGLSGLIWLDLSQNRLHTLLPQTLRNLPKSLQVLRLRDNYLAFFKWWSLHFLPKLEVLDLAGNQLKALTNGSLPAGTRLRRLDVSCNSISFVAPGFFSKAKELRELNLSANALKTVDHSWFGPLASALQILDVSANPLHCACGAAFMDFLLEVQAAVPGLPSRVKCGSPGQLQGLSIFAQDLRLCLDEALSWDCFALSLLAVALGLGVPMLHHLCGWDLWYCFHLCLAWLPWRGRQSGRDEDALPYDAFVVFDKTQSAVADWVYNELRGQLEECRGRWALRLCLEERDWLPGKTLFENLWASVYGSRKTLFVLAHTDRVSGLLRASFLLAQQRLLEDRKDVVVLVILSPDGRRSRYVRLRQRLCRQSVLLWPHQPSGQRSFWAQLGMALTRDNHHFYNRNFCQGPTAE
PROPERTY_MEASURED: IC50 (nM)

Solved entries:
COMPOUND	PROPERTY_MEASURED	RESULT
COc1cc(-c2nc3c(C)cc(C4CCN(C5CCN(CC(C)C)CC5)CC4)cc3[nH]2)cn2ncnc12 [Example 61, tris(2,2,2-trifluoroacetate)]	IC50	49
Cc1cc(C2CCN(C3CCN(CC(C)C)CC3)CC2)cc2[nH]c(-c3ccnc4ccccc34)nc12	IC50	100

1 = CCn1c(-c2ccc(OC)c(OC)c2)nc2cc(C3CCN(C4CCN(C(C)C)CC4)CC3)ccc21 (single isomer, unassigned)
2 = COc1ccc(-c2nc3c(C)cc(C4CCN(C5CCN(C(C)C)CC5)CC4)cc3n2C)cc1F
3 = Cc1cc(-c2cc(F)cc(CN3CCC(N4CCCC4)CC3)c2)cc2c1nc(-c1ccc(S(C)(=O)=O)cc1)n2C
4 = CN(C)c1ccc(-c2nc3ccc(-c4ccc(CN5CCC(N(C)C)CC5)cc4)cc3n2C)cc1
Order the records, beginning with the lowest IC50 and ending with the highest. I would appreciate it if you listed the labels in the requested order.
3, 4, 2, 1
